Test system: UACC-257 melanoma
protocolNotes: NCI tumour cell line growth inhibition, 48 h
propertyName: TGI

Solved cases (8 shown):
INSERT INTO measurements (compound, recordedvalue) VALUES
  ('C#C[C@H](CCCC)OC(=O)N[C@H](C)c1ccccc1', '71 µM'),
  ('CCCN1C(=O)CSC1=Nc1ccc2cc3ccc(N=C4SCC(=O)N4CCC)cc3nc2c1', '> 100 µM'),
  ('CCCCCCCCCCCC(=O)c1c(O)cccc1O', '30.8 µM'),
  ('CS(=O)(=O)CCn1c(=O)c(Oc2ccc(F)cc2F)cc2cnc(NC3CCOCC3)nc21', '> 25 µM'),
  ('Cc1nc2ncn3c(c-2c1Cc1ccccc1)NC=C(O)N3', '> 100 µM'),
  ('C1=C(c2ccccc2)SC=C(c2ccccc2)S1', '> 100 µM'),
  ('O=[N+]([O-])C(=C(Nc1ccccc1)Nc1ccccc1)/C(Cl)=C(\Cl)Br', '27.8 µM'),
  ('O=S(=O)(O)c1cc(N=Nc2cc(S(=O)(=O)O)c3cccnc3c2O)ccc1/C=C/c1ccc(N=Nc2cc(S(=O)(=O)O)c3cccnc3c2O)cc1S(=O)(=O)O', '> 100 µM');

Entry Nc1ccc(-c2nc3cc(F)ccc3s2)cc1CO ; assay system UACC-257 melanoma; TGI recorded at > 100 µM

Entry Oc1c(I)cc(-c2nc3ccccc3s2)cc1CN(Cc1ccccn1)Cc1ccccn1 ; assay system UACC-257 melanoma; TGI recorded at > 100 µM

Entry COc1ccc(/C=C/C(=O)c2cc3c(N)c(C(=O)Nc4ccccc4C)sc3nc2C)cc1 ; assay system UACC-257 melanoma; TGI recorded at > 50 µM

Entry S=C1N=C(Cl)/C(=C\c2ccco2)N1 ; assay system UACC-257 melanoma; TGI recorded at > 100 µM

Entry COC(CN(C=O)[C@@H](c1ccc(Cl)cc1)c1cc2ccccc2o1)OC ; assay system UACC-257 melanoma; TGI recorded at 28 µM

Entry COc1cc2c(c(OC)c1OC)C(=O)[C@H](Br)[C@H]2NC(=O)NCCCl ; assay system UACC-257 melanoma; TGI recorded at > 100 µM

Entry CC1SC(c2c(Cl)cccc2Cl)N(NC(=O)C(O)c2ccccc2)C1=O (stereo unspecified) ; assay system UACC-257 melanoma; TGI recorded at > 100 µM

Entry O=c1c2ccccc2[nH]c(=S)n1-c1ccc(N=Nc2cccc3cc(O)ccc23)cc1 ; assay system UACC-257 melanoma; TGI recorded at > 100 µM

Entry Nc1nc(NCC2(CO)CCC2)cc(=O)[nH]1 ; assay system UACC-257 melanoma; TGI recorded at > 100 µM
